assay: Cytotoxicity against mouse BV2 cells assessed as reduction of cell viability at IC50 after 24 hrs by MTT assay; assay type: cell-based; details: bv-2, 24 h
test readout: Activity

Examples from the recorded data:
INSERT INTO results (compound_smiles, recorded_value) VALUES
  ('CC1(C)CC[C@]2(C(=O)O)CC[C@]3(C)[C@H](CC[C@@H]4[C@@]5(C)CC[C@H](O)C(C)(C)[C@@H]5CC[C@]43C)[C@H]2[C@H]1O', 'Non-toxic'),
  ('COc1cc(O)cc(-c2oc3c(ccc4occc43)c(=O)c2OC)c1', 'Non-toxic'),
  ('COc1ccc(-c2coc3c(OC)c(O)ccc3c2=O)cc1', 'Non-toxic'),
  ('C=C(C)[C@@H]1CC[C@]2(C(=O)O)CC[C@]3(C)[C@H](CC[C@@H]4[C@@]5(C)CCC(=O)C(C)(C)[C@@H]5CC[C@]43C)[C@@H]12', 'Non-toxic');

Inquiry: Which Activity is reported for this compound? `CC1(C)C=Cc2c(ccc(C(=O)/C=C/c3ccccc3)c2O)O1`
Reply text: Non-toxic

Inquiry: Which Activity is reported for this compound? `COc1cc(OC)cc(-c2cc(=O)c3ccc4occc4c3o2)c1`
Reply text: Non-toxic

Inquiry: Which Activity is reported for this compound? `O=c1cc(-c2ccccc2)oc2c1ccc1occc12`
Reply text: Non-toxic

Inquiry: Which Activity is reported for this compound? `O=c1cc(-c2ccc3c(c2)OCO3)oc2c1ccc1occc12`
Reply text: Non-toxic
